Test system: HeLa Kyoto;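 also: HeLa Kyoto cells arrested at G1/S by double thymidine block, proteins quantified by TMT10plex mass spectrometry in mild NP-40 versus SDS extracts, three biological replicates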
Assay: solubility in G1/S (NP-40 vs SDS abundance) (log2 ratio); higher = more soluble
Settings: cell cycle stage: G1/S
Please mark class 1 if the recorded solubility in G1/S (log2) is equal to or greater than 0.6, and class 0 if it falls below.

Solved entries:
# orderedResidues, label
records = [
    ("MTKAGSKGGNLRDKLDGNELDLSLSDLNEVPVKELAALPKATILDLSCNKLTTLPSDFCGLTHLVKLDLSKNKLQQLPADFGRLVNLQHLDLLNNKLVTLPVSFAQLKNLKWLDLKDNPLDPVLAKVAGDCLDEKQCKQCANKVLQHMKAVQADQERERQRRLEVEREAEKKREAKQRAKEAQERELRKREKAEEKERRRKEYDALKAAKREQEKKPKKEANQAPKSKSGSRPRKPPPRKHTRSWAVLKLLLLLLLFGVAGGLVACRVTELQQQPLCTSVNTIYDNAVQGLRRHEILQWVLQTDSQQ [LRRC59]", "class 1"),
    ("MAAPAQQTTQPGGGKRKGKAQYVLAKRARRCDAGGPRQLEPGLQGILITCNMNERKCVEEAYSLLNEYGDDMYGPEKFTDKDQQPSGSEGEDDDAEAALKKEVGDIKASTEMRLRRFQSVESGANNVVFIRTLGIEPEKLVHHILQDMYKTKKKKTRVILRMLPISGTCKAFLEDMKKYAETFLEPWFKAPNKGTFQIVYKSRNNSHVNREEVIRELAGIVCTLNSENKVDLTNPQYTVVVEIIKAVCCLSVVKDYMLFRKYNLQEVVKSPKDPSQLNSKQGNGKEAKLESADKSDQNNTAEGKNNQQVPENTEELGQTKPTSNPQVVNEGGAKPELASQATEGSKSNENDFS [THUMPD1]", "class 0"),
    ("MFLTRSEYDRGVNTFSPEGRLFQVEYAIEAIKLGSTAIGIQTSEGVCLAVEKRITSPLMEPSSIEKIVEIDAHIGCAMSGLIADAKTLIDKARVETQNHWFTYNETMTVESVTQAVSNLALQFGEEDADPGAMSRPFGVALLFGGVDEKGPQLFHMDPSGTFVQCDARAIGSASEGAQSSLQEVYHKSMTLKEAIKSSLIILKQVMEEKLNATNIELATVQPGQNFHMFTKEELEEVIKDI [PSMA5]", "class 0"),
    ("MAVTAQAARRKERVLCLFDVDGTLTPARQKIDPEVAAFLQKLRSRVQIGVVGGSDYCKIAEQLGDGDEVIEKFDYVFAENGTVQYKHGRLLSKQTIQNHLGEELLQDLINFCLSYMALLRLPKKRGTFIEFRNGMLNISPIGRSCTLEERIEFSELDKKEKIREKFVEALKTEFAGKGLRFSRGGMISFDVFPEGWDKRYCLDSLDQDSFDTIHFFGNETSPGGNDFEIFADPRTVGHSVVSPQDTVQRCREIFFPETAHEA [PMM1]", "class 0"),
]

Next sequence, please.
Confirm if solubility in G1/S (log2) reported for the sequence MAEASSANLGSGCEEKRHEGSSSESVPPGTTISRVKLLDTMVDTFLQKLVAAGSYQRFTDCYKCFYQLQPAMTQQIYDKFIAQLQTSIREEISDIKEEGNLEAVLNALDKIVEEGKVRKEPAWRPSGIPEKDLHSVMAPYFLQQRDTLRRHVQKQEAENQQLADAVLAGRRQVEELQLQVQAQQQAWQALHREQRELVAVLREPE [PMF1] is 0.6 or above.
class 0
